Molecular target: Polyunsaturated fatty acid 5-lipoxygenase (Homo sapiens, UniProt P09917)
Sequence (P09917 whole entry): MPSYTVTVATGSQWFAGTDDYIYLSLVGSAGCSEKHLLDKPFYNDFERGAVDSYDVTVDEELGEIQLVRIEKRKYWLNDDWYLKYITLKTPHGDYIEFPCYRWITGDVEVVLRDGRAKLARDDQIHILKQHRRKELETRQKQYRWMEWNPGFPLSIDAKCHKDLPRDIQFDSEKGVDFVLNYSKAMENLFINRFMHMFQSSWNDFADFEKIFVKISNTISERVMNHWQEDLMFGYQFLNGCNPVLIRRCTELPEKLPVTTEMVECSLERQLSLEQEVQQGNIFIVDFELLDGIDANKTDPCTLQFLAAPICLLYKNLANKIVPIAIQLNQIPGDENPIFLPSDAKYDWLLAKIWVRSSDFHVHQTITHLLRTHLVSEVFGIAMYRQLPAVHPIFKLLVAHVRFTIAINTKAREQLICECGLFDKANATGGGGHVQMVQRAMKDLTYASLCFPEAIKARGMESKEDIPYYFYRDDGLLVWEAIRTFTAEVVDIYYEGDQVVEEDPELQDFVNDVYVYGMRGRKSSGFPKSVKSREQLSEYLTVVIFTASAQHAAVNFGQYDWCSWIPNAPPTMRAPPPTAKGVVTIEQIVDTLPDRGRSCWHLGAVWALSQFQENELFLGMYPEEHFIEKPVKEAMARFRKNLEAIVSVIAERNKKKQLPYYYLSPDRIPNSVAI
Assay: Inhibition of 5LOX in human PBMC by EIA assay
// values below are reported IC50
Field format: number, assumed µM, no unit text.

Some entries whose results are on file:
{"COMPOUND": "O=C1O[C@H](c2ccc(O)c(O)c2)[C@H]2CO[C@H](c3ccc(O)c(O)c3)[C@@H]12", "UNIT NAME": "µM", "IC50": 5.6}
{"COMPOUND": "COc1cc([C@@H]2OC[C@H]3[C@@H]2CO[C@H]3c2ccc(O)c(OC)c2)ccc1O [(-)-PINORESINOL]", "UNIT NAME": "µM", "IC50": 13.8}
{"COMPOUND": "OC[C@@H]1[C@@H]([C@H](O)c2ccc(O)c(O)c2)CO[C@@H]1c1ccc(O)c(O)c1", "UNIT NAME": "µM", "IC50": 9.2}

# compound Oc1ccc([C@@H]2OC[C@@H]3[C@H]2CO[C@H]3c2ccc(O)c(O)c2)cc1O ; its IC50 = 5.9

* * *

Consider the following compounds and their measured pIC50 readings.
target: Prostaglandin G/H synthase 2 (Homo sapiens, UniProt P35354); assay: Inhibition of human recombinant COX2 expressed in insect Sf21 cells by EIA assay
Sequence (P35354 whole entry): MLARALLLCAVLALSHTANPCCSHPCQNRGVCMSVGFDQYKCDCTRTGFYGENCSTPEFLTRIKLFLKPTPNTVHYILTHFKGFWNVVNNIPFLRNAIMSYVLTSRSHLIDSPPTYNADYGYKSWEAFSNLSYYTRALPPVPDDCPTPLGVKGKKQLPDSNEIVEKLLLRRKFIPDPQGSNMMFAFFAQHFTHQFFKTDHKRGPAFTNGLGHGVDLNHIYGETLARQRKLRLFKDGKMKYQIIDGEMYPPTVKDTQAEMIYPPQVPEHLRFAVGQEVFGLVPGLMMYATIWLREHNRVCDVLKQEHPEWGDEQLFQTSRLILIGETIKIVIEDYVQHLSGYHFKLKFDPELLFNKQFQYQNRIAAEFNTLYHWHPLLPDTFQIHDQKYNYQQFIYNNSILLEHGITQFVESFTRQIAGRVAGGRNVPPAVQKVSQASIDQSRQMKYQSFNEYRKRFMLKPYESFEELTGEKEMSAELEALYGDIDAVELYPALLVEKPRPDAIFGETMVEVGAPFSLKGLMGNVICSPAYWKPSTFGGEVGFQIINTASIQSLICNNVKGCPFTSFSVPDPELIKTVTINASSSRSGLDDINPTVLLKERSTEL
pIC50: −log10 of the molar value.

// pIC50 lookup, compound = O=C1O[C@H](c2ccc(O)c(O)c2)[C@H]2CO[C@H](c3ccc(O)c(O)c3)[C@@H]12 , result: 4.04

For this compound ( COc1cc2oc(=O)ccc2cc1O ), measured pIC50 is < 4.00

Reported pIC50 ( O=c1c(O)c(-c2ccc(O)cc2)oc2cc(O)cc(O)c12 ) = < 4.00

The reported value for Oc1ccc([C@@H]2OC[C@@H]3[C@H]2CO[C@H]3c2ccc(O)c(O)c2)cc1O in terms of pIC50 is < 4.00

Sample OC[C@@H]1[C@@H]([C@H](O)c2ccc(O)c(O)c2)CO[C@@H]1c1ccc(O)c(O)c1 ; pIC50 observed: 4.13

pIC50 in this record for COc1cc2ccc(=O)oc2cc1O : < 4.00
